meta.source: BigSolDB 2.1

# CONDITIONS USED: in n-propanol, 308.15 K
MEASURE NAME: solubility (mole fraction)
Write the value as a bare number.

Incoming: Consider the compound "NC(=O)c1ccc(N)cc1" and give its measured solubility (mole fraction).
Outgoing: 0.00711

----------
# CONDITIONS USED: in n-butanol, 318.15 K
MEASURE NAME: solubility (mole fraction)
Lab note: jot the number down without any unit.

Incoming: What value of measured solubility (mole fraction) is listed for "NC(=O)c1ccc(N)cc1" ?
Outgoing: 0.00468

----------
# CONDITIONS USED: in acetonitrile, 283.15 K
MEASURE NAME: solubility (mole fraction)

Incoming: Name the reported solubility (mole fraction) value associated with the compound "NC(=O)c1ccc(N)cc1"
Outgoing: 0.00193

----------
# CONDITIONS USED: in ethyl acetate, 298.15 K
MEASURE NAME: solubility (mole fraction)
Answer with a bare number; do not write a unit.

Incoming: Sample "NC(=O)c1ccc(N)cc1" — what was its solubility (mole fraction)?
Outgoing: 0.000845

----------
# CONDITIONS USED: in ethyl acetate, 313.15 K
MEASURE NAME: solubility (mole fraction)

Incoming: Any idea what its solubility (mole fraction) is? The compound is "NC(=O)c1ccc(N)cc1"
Outgoing: 0.00166

----------
# CONDITIONS USED: in acetone, 323.15 K
MEASURE NAME: solubility (mole fraction)
Output: the number by itself.

Incoming: What does the record list as solubility (mole fraction) for "NC(=O)c1ccc(N)cc1" ?
Outgoing: 0.0176

----------
# CONDITIONS USED: in ethyl acetate, 308.15 K
MEASURE NAME: solubility (mole fraction)
Answer as a number with no unit attached.

Incoming: Entry "NC(=O)c1ccc(N)cc1" : reported solubility (mole fraction) = ?
Outgoing: 0.00131

----------
# CONDITIONS USED: in acetonitrile, 318.15 K
MEASURE NAME: solubility (mole fraction)
Write no unit; give the number alone.

Incoming: Endpoint output: solubility (mole fraction) of "NC(=O)c1ccc(N)cc1" . Value?
Outgoing: 0.00546

----------
# CONDITIONS USED: in ethanol, 308.15 K
MEASURE NAME: solubility (mole fraction)

Incoming: May I ask what solubility (mole fraction) has been recorded for "NC(=O)c1ccc(N)cc1" ?
Outgoing: 0.0104

----------
# CONDITIONS USED: in n-propanol, 288.15 K
MEASURE NAME: solubility (mole fraction)
Reply: number alone, nothing else.

Incoming: Can you share its solubility (mole fraction)? I mean this molecule: "NC(=O)c1ccc(N)cc1"
Outgoing: 0.00411

----------
# CONDITIONS USED: in isopropanol, 303.15 K
MEASURE NAME: solubility (mole fraction)
The answer should be a number; do not append a unit.

Incoming: Look at this molecule and give its reported solubility (mole fraction). "NC(=O)c1ccc(N)cc1"
Outgoing: 0.00487

----------
# CONDITIONS USED: in ethanol, 303.15 K
MEASURE NAME: solubility (mole fraction)
Write the number on its own, no unit after it.

Incoming: Returns the measured solubility (mole fraction) for the input compound. Input: "NC(=O)c1ccc(N)cc1"
Outgoing: 0.00883

----------
# CONDITIONS USED: in ethanol, 283.15 K
MEASURE NAME: solubility (mole fraction)
Just the number, please.

Incoming: Which solubility (mole fraction) is listed for "NC(=O)c1ccc(N)cc1" ?
Outgoing: 0.00621
